Biological target: T1, Peptide 4: Biotin-AGGGGSGGGGSGGGGSAAA-Tyr-acid (N-terminal biotin; C-terminal acid; no PC)
T1 construct: control peptide without PC
T1 peptide: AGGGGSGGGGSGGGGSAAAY
Assay: scFv ELISA
Measured OD450 accompanies every entry in the list below.
# value in OD450; strip the unit string

Below are worked cases with known answers.
| Binder | OD450 / OD450 |
| --- | --- |
| PcOxP_DB04_C03 (scFv, V domains shown, scFv in periplasmic extract) VH: EVQLLESGGGLVQPGGSLRLSCAASGFTTSDFYMEWVRQAPGKGLEWVAASRNKANSYTTEYADSVKGRFTISRDNSKNTLYLQMNSLRAEDTAVYYCARDYYGSSYWYFDVWGQGTLVTVSS VL: DIQMTQSPSSLSASVGDRVTITCTASESLYSSKHKVHYLAWYQQKPGKAPKLLIYGASSLYSGVPSRFSGSGSGTDFTLTISSLQPEDFATYYCAQFYEYPLTFGGGTKVEIK | 0.06 |
| PcOxP_DB02_A04 (scFv, V domains shown, scFv in periplasmic extract) VH: EVQLLESGGGLVQPGGSLRLSCAASGDTFSDFYMEWVRQAPGKGLEWVAASRNKWNDYTTEYADSVKGRFTISRDNSKNTLYLQMNSLRAEDTAVYYCARDYYGSSYWYFDVWGQGTLVTVSS VL: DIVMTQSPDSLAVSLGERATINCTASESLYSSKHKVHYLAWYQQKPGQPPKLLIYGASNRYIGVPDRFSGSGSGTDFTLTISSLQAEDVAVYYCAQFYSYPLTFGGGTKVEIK | 0.04 |

Task item: Return OD450 for the following binder: PcOxP_DB01_D12 (scFv, V domains shown, scFv in periplasmic extract) VH: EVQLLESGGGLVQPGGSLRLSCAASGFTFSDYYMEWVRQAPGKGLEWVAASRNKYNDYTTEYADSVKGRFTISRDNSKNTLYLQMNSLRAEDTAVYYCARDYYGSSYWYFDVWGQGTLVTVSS VL: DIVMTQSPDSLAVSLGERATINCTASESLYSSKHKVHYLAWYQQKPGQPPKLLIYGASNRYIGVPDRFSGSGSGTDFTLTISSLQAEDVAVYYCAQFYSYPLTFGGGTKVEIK
Reply: 0.05
